Source listed as BigSolDB 2.1.

measurementContext: in isopropanol, 303.15 K
resultType: solubility (mole fraction)
Numbers only.

input: Look up and report measured solubility (mole fraction) for this entry: CCCCN1CCCCC1C(=O)Nc1c(C)cccc1C.Cl (stereo unspecified)
output: 0.0028

###

measurementContext: in ethanol, 333.15 K
resultType: solubility (mole fraction)
One number for each entry.

input: Look up and report measured solubility (mole fraction) for this entry: CCCCN1CCCCC1C(=O)Nc1c(C)cccc1C.Cl (stereo unspecified)
output: 0.0372

###

measurementContext: in n-propanol, 323.15 K
resultType: solubility (mole fraction)

input: Look up and report measured solubility (mole fraction) for this entry: CCCCN1CCCCC1C(=O)Nc1c(C)cccc1C.Cl (stereo unspecified)
output: 0.0216

###

measurementContext: in methanol, 328.15 K
resultType: solubility (mole fraction)
Give bare numbers.

input: Look up and report measured solubility (mole fraction) for this entry: CCCCN1CCCCC1C(=O)Nc1c(C)cccc1C.Cl (stereo unspecified)
output: 0.0407

###

measurementContext: in water, 328.15 K
resultType: solubility (mole fraction)

input: Look up and report measured solubility (mole fraction) for this entry: CCCCN1CCCCC1C(=O)Nc1c(C)cccc1C.Cl (stereo unspecified)
output: 0.0036

###

measurementContext: in isopropanol, 308.15 K
resultType: solubility (mole fraction)

input: Look up and report measured solubility (mole fraction) for this entry: CCCCN1CCCCC1C(=O)Nc1c(C)cccc1C.Cl (stereo unspecified)
output: 0.0032

###

measurementContext: in methanol, 293.15 K
resultType: solubility (mole fraction)
Give bare numbers.

input: Look up and report measured solubility (mole fraction) for this entry: CCCCN1CCCCC1C(=O)Nc1c(C)cccc1C.Cl (stereo unspecified)
output: 0.0116

###

measurementContext: in n-butanol, 308.15 K
resultType: solubility (mole fraction)
Answers are plain numbers.

input: Look up and report measured solubility (mole fraction) for this entry: CCCCN1CCCCC1C(=O)Nc1c(C)cccc1C.Cl (stereo unspecified)
output: 0.0164

###

measurementContext: in n-butanol, 333.15 K
resultType: solubility (mole fraction)
One number for each entry.

input: Look up and report measured solubility (mole fraction) for this entry: CCCCN1CCCCC1C(=O)Nc1c(C)cccc1C.Cl (stereo unspecified)
output: 0.0412

###

measurementContext: in water, 303.15 K
resultType: solubility (mole fraction)

input: Look up and report measured solubility (mole fraction) for this entry: CCCCN1CCCCC1C(=O)Nc1c(C)cccc1C.Cl (stereo unspecified)
output: 0.0021

###

measurementContext: in isopropanol, 333.15 K
resultType: solubility (mole fraction)
One number for each entry.

input: Look up and report measured solubility (mole fraction) for this entry: CCCCN1CCCCC1C(=O)Nc1c(C)cccc1C.Cl (stereo unspecified)
output: 0.0069

###

measurementContext: in DMF, 313.15 K
resultType: solubility (mole fraction)
Answers are plain numbers.

input: Look up and report measured solubility (mole fraction) for this entry: CCCCN1CCCCC1C(=O)Nc1c(C)cccc1C.Cl (stereo unspecified)
output: 0.0096

###

measurementContext: in methanol, 303.15 K
resultType: solubility (mole fraction)
One number for each entry.

input: Look up and report measured solubility (mole fraction) for this entry: CCCCN1CCCCC1C(=O)Nc1c(C)cccc1C.Cl (stereo unspecified)
output: 0.0167

###

measurementContext: in DMF, 308.15 K
resultType: solubility (mole fraction)
Numbers only.

input: Look up and report measured solubility (mole fraction) for this entry: CCCCN1CCCCC1C(=O)Nc1c(C)cccc1C.Cl (stereo unspecified)
output: 0.0079
